All figures here come from ChEMBL document CHEMBL1201862.

- System: NCI-H23
- Test method notes: NCI tumour cell line growth inhibition, 48 h
Active and inactive are the calls of the source. No stated cut-off is given here; in the data, active = GI50 up to about 1.1 µM and inactive = higher.
Hello, when you answer, please use one of the following outcomes: TRUE for active, FALSE for inactive

Query: Test call for this compound, please: O=c1[nH]cc(COCCCO)c(=O)[nH]1
Reply: FALSE

Query: # outcome recorded in this test, key = CC(=O)c1nc(C#N)c(N)o1
Reply: FALSE

Query: Which result was noted for this compound in the test: O=C1c2ccccc2C(=O)C1C(c1ccc([N+](=O)[O-])cc1)C1C(=O)c2ccccc2C1=O
Reply: FALSE

Query: Dear colleague, could you share the recorded outcome for C[N+](C)(C)CC(=O)N/N=C/c1ccncc1 when you have a moment?
Reply: FALSE

Query: Assay result, entry CC(C)C1C(=O)N2CCCC2C2(O)OC(NC(=O)C3C=C4c5cccc6[nH]cc(c56)CC4N(C)C3)(C(C)C)C(=O)N12 (configuration not stated) — outcome?
Reply: FALSE

Query: Hi team, can someone confirm the assay call for CCC1(O)C(=O)OCc2c1cc1n(c2=O)Cc2cc3ccc(C=O)cc3nc2-1 (configuration not stated) ?
Reply: FALSE

Query: How was COc1cc(/C=C2\CC3C4CC=C5C[C@@H](O)CC[C@]5(C)C4CC[C@]3(C)\C2=N\O)cc(OC)c1OC (some centres not stated) classified in this test?
Reply: FALSE

Query: // return assay outcome for CCCC/C=C/C=C/C=C/CCCCCCCC(=O)OCC(COC(=O)CCCCCCC/C=C/C1C=CC(CCCC)C(C(=O)O)C1C(=O)O)OC(=O)CCCCCCC/C=C/C=C/C=C/CCCC.OCCNCO (configuration not stated)
Reply: FALSE

Query: Kindly provide the recorded test outcome for the following compound: Cc1nc2cc(Cl)c(N)cc2[nH]1
Reply: FALSE

Query: # fetch the recorded call for O=P(c1ccccc1)(c1ccccc1)C1CC=C2CCCCCC2C1 (configuration not stated) here
Reply: FALSE

Query: Per the assay record, what outcome was assigned to N#Cc1c(C[n+]2ccccc2)c2ccccc2oc1=O ?
Reply: FALSE

Query: For CS(=O)(=O)N(CCC#N)c1ccc(/C=C2\N=C(c3ccccc3Cl)OC2=O)cc1 , what call appears in the results of this test?
Reply: FALSE

Query: What did the test return for O=C1CCCC1CN1CCCC1 (configuration not stated) ?
Reply: FALSE

Query: What did this assay record as the result for S=C(Nc1ccccn1)Nc1ccccc1Cl ?
Reply: FALSE

Query: Which result was noted for this compound in the test: Nc1ccn(C2CCC(COP(=O)(O)OCC(O)COP(=O)(O)OCC3OC(n4cc(F)c(=O)[nH]c4=O)CC3O)O2)c(=O)n1 (configuration not stated)
Reply: TRUE

Query: # lookup: test call for CC(=O)Oc1ccc(/C=C/C(=O)OCCCOC(=O)/C=C/c2ccc(OC(C)=O)c(OC(C)=O)c2)cc1OC(C)=O
Reply: FALSE

Query: Test call, this compound: O=C(O)COc1cc(-c2ccccc2F)nc2cc3c(cc12)OCO3
Reply: FALSE

Query: What classification did CN(NC1=NCCO1)c1ccc2ccccc2c1 end up with in this test?
Reply: FALSE

Query: Which outcome did this test record for the compound Cc1cc(N(CCC#N)S(C)(=O)=O)ccc1C=O ?
Reply: FALSE

Query: Test call for this compound, please: COc1ccc2nc3ccccc3c(NCCN(C)CCCl)c2c1
Reply: TRUE

Query: For this compound, state the assay outcome: CC1(C)O[C@@H]2[C@@H]3OC(=O)C[C@@H]3[C@@H](COCc3ccccc3)[C@@H]2O1
Reply: FALSE

Query: Call for entry Cc1cc([N+](=O)[O-])ccc1Sc1c2ccccc2nc2cc(Cl)ccc12 :
Reply: FALSE

Query: Hey, what did the test say about C=CCCCC12CCCc3cccc(c31)NC2=O (configuration not stated) ?
Reply: FALSE

Query: State the result this test recorded for CC1(C)C(=O)C(=Cc2ccco2)C1=O .
Reply: FALSE

Query: Could you kindly confirm the outcome this assay logged for CC(=O)CC(=O)N1CCOC1=O ?
Reply: FALSE

Query: Outcome logged for COc1ccc(C2SC(=N)Nc3c2c(C)nn3C(=O)c2ccccc2O)cc1 (configuration not stated) in this assay:
Reply: TRUE

Query: Please indicate how the test categorized C[C@@]12CCC(=O)c3coc(c31)C(=O)c1cc3c(cc12)C(=O)C=CC3=O [HELENAQUINONE] .
Reply: FALSE

Query: What classification did CC(C)=NN/C(=N\c1ccc(Cl)cc1)NS(=O)(=O)c1ccc(Oc2cccc(Cl)c2C#N)cc1 end up with in this test?
Reply: FALSE

Query: GET /call?item= COC12C=CC(CC1)C(C)(C)C2OS(C)(=O)=O (configuration not stated) returns the recorded outcome of this test.
Reply: FALSE

Query: Lab log entry: CCn1cc(C(=O)O)c(=O)c2ccc(C)nc21 [NALIDIXIC ACID] — outcome as called in the assay?
Reply: FALSE

Query: Test call for this compound, please: NC1=NN(c2ccccc2)C(=O)C1/C(=N\NC(=O)c1cc2ccccc2cc1O)C(=O)Nc1ccc(Cl)cc1 (configuration not stated)
Reply: FALSE

Query: GET /call?item= CCCCCCCCCC(=O)OCC1OC(n2cc(F)c(=O)[nH]c2=O)C(NC(=O)OCc2ccccc2)C(OC(=O)CCCCCCCCC)C1O (configuration not stated) returns the recorded outcome of this test.
Reply: FALSE

* * *

- System: SK-OV-3
- Test method notes: NCI tumour cell line growth inhibition, 48 h
Calls of active or inactive are those of the source. Cut-off read from the data, not from the text of the source: active = GI50 up to about 1.1 µM and inactive = higher.
Valid outcomes are listed here; reply with one: yes (1) (active), no (0) (inactive)

Query: What did the test return for Oc1ccc(Br)cc1/C=N/c1ccc(Oc2ccc(/N=C/c3cc(Br)ccc3O)cc2)cc1 ?
Reply: no (0)

Query: Give the logged outcome of this assay for the following compound: CN1C(=O)c2ccccc2NC(=O)c2cnn(C)c21
Reply: no (0)

Query: # lookup: test call for Cc1ccc(O)c(-c2cc(-c3cccc(Cl)c3)c(C#N)c(N)n2)c1
Reply: no (0)

Query: Would you mind telling me which call this test gave Cc1nc(SCC(=O)Nc2ccccc2)c2sc(=S)n(-c3ccccc3)c2n1 ?
Reply: no (0)

Query: Fill in: this test's call for CCCCSC1=N/C(=C\c2ccccc2O)C(=O)N1 is ___
Reply: no (0)

Query: Per the assay record, what outcome was assigned to NC1=NC2(COC(c3ccccc3)(c3ccccc3)c3ccccc3)OC(COC(c3ccccc3)(c3ccccc3)c3ccccc3)C(O)C2O1 (centres undefined) ?
Reply: no (0)

Query: State the result this test recorded for CCC(=O)Nc1cccc(/N=C/c2ccc(OC(=O)/C=C\c3ccccc3)cc2)c1 .
Reply: no (0)

Query: Identify the outcome logged in this assay for the compound shown: OC(NN=C1CCCC1)(C(F)(F)Cl)C(F)(F)Cl
Reply: no (0)

Query: Field: outcome | Entry: CC(C)OC(=O)C(NC(=O)C(CC(=O)OCc1ccccc1)NC(=O)OCc1ccccc1)NC(=O)C1C(C)(C)CCC1(C)C (centres undefined)
Reply: no (0)

Query: For O=C1NC(c2ccccc2Cl)Nc2ccccc21 (centres undefined) , what call appears in the results of this test?
Reply: no (0)

Query: Which result was noted for this compound in the test: O=C(CC1=Nc2nnc(-c3nnc4n3C(=O)C(CC(=O)c3cccnc3)=N4)n2C1=O)c1cccnc1
Reply: no (0)

Query: What outcome does the record of this test show for CN(NC1=NCCO1)c1ccc2ccccc2c1 ?
Reply: no (0)

Query: So what was the verdict on CCOC(=O)N1CCC(=O)C(CNC23CC4CC(CC(C4)C2)C3)C1 (centres undefined) in this test?
Reply: no (0)

Query: Just curious, what result did O=C(NNC(=O)c1ccccc1O)c1ccco1 get here?
Reply: no (0)

Query: How did this test come out for c1ccc2c(c1)C(=Nc1ccc(N=C3c4ccccc4-c4ccccc43)cc1)c1ccccc1-2 ?
Reply: no (0)

Query: Could you check what this test reported for CCCCCCCCCCCC(=O)OCC1OC(n2cc(F)c(=O)[nH]c2=O)C(N)C(OC(=O)CCCCCCCCCCC)C1O (centres undefined) ?
Reply: no (0)

Query: Record lookup: outcome of this test for COc1cc(CC2CCc3nc(N)nc(N)c3C2)cc(OC)c1OC (centres undefined) ?
Reply: no (0)

Query: Status in this test for Brc1ccc2[nH]cc(-c3csc(-c4c[nH]c5ccc(Br)cc45)n3)c2c1 ?
Reply: no (0)

Query: Answer briefly: the call reported for N#Cc1c(O)c(/C=N/c2ncccn2)c(=O)n2c1[nH]c1ccccc12 in this assay.
Reply: no (0)

Query: Any idea what this test logged for COC(=O)C(C(=O)c1ccccc1)C(C(=O)C(=O)Nc1ccc(OC)cc1OC)C(=O)C(=O)c1ccc(C)cc1 (centres undefined) ?
Reply: no (0)

Query: Please state the recorded outcome for this compound: O=C1Nc2cc([N+](=O)[O-])ccc2N/C1=C/C(=O)c1ccc(Cl)cc1
Reply: no (0)

Query: Please share the test call associated with Nc1ccc2c3[nH]c4cc(N)ccc4cc-3nc2c1 .
Reply: yes (1)

Query: Check the results log: what was the call for N=C1N=C(N)c2cc3c(cc21)SCCSCCCSCCS3 ?
Reply: no (0)

Query: Could you check what this test reported for CN1C(=O)c2c(c3c4ccccc4n(C4OC(CO)C(O)C(O)C4O)c3c3[nH]c4ccccc4c23)C1=O (centres undefined) ?
Reply: no (0)
